assay: solubility of Freeform Form A in solvents; type: physicochemical; conditions: ACN, organic solvent or mixture
EXPERIMENTAL_READOUT: solubility

                                   molecule  experimental_readout  observed_value
0  COc1ccc([C@@]23CCC(=O)C[C@@H]2N(C)CC3)cc1OC [Freeform Form A]            solubility      > 44 mg/mL

---

test: solubility of Freeform Form A in solvents; assay type: physicochemical; settings: 1,4-Dioxane, organic solvent or mixture
EXPERIMENTAL_READOUT: solubility

>>> print(df.to_string())
                                   compound  observed_value
0  COc1ccc([C@@]23CCC(=O)C[C@@H]2N(C)CC3)cc1OC [Freeform Form A]      > 40 mg/mL

---

assay: solid state stability: storage at 25° C./60% RH and 40° C./75% RH for 1 week, XRPD and HPLC purity; assay type: physicochemical; conditions: Initial, HPLC purity
EXPERIMENTAL_READOUT: Purity (area %)

>>> print(df.to_string())
                                   compound  observed_value
0  COc1ccc([C@@]23CCC(=O)C[C@@H]2N(C)CC3)cc1OC.O=S(=O)(O)c1ccccc1 [Besylate Form B]           97.21
1  COc1ccc(C23CCC(=O)CC2N(C)CC3)cc1OC.Cl (stereo not shown) [HCl Form A]           97.15
2  COc1ccc([C@@]23CCC(=O)C[C@@H]2N(C)CC3)cc1OC.O=C(O)c1cc(O)ccc1O [Gentisate Form A]           97.22
3  COc1ccc([C@@]23CCC(=O)C[C@@H]2N(C)CC3)cc1OC [Freeform Form A]           98.15

---

Assay: kinetic solubility in H2O and bio-relevant media (SGF, FaSSIF, FeSSIF) at 37° C.
Assay type: physicochemical
Settings: 37 °C, thermodynamic from solid; in FeSSIF; read-out: observed solubility
Protocol: • 1. Add about 40 mg of samples and 4 mL of corresponding medium into a 5-mL glass vial. The loading concentration was ˜10 mg/mL (calculated by freebase). • 2. Roll at 37° C. (˜25 rpm). Sample at 1, 2, 4 and 24 hrs. • 3. At each time-point, sample 0.8 mL of solution or suspension into a centrifuge tube prior to centrifugation (12000 rpm, 37° C., 5 min) and filtration through 0.45 μm PTFE membrane. • 4. Test pH and concentration for the filtrate. Analyze residual solids by XRPD.
EXPERIMENTAL_READOUT: solubility

>>> df
                                   molecule  observed_value
0  COc1ccc([C@@]23CCC(=O)C[C@@H]2N(C)CC3)cc1OC [Freeform Form A]    > 8300 µg/mL

---

experiment: solubility of Freeform Form A in solvents; format: physicochemical; details: EtOH, organic solvent or mixture
EXPERIMENTAL_READOUT: solubility

>>> df
                                   compound  observed_value
0  COc1ccc([C@@]23CCC(=O)C[C@@H]2N(C)CC3)cc1OC [Freeform Form A]      > 42 mg/mL

---

test: kinetic solubility in H2O and bio-relevant media (SGF, FaSSIF, FeSSIF) at 37° C.; assay type: physicochemical; settings: simulated gastric fluid, thermodynamic from solid; SGF, 4 hrs, 37° C.; read-out: S: Solubility (mg/mL), calculated by freebase
EXPERIMENTAL_READOUT: solubility at 4 h

In [3]: df
Out[3]:
                                   molecule  experimental_readout  observed_value
0  COc1ccc([C@@]23CCC(=O)C[C@@H]2N(C)CC3)cc1OC [Freeform Form A]     solubility at 4 h     > 8.4 mg/mL

Values were extracted from patent US20250026718A1.
